# measured target: TLR7 (Homo sapiens, UniProt Q9NYK1)
# Construct: Human peripheral blood mononuclear cells (PBMCs) consist of lymphocytes, monocytes and dendritic cells that express TLR7, TLR8 and TLR9; endogenous in cells
# Sequence (Q9NYK1 27-1049): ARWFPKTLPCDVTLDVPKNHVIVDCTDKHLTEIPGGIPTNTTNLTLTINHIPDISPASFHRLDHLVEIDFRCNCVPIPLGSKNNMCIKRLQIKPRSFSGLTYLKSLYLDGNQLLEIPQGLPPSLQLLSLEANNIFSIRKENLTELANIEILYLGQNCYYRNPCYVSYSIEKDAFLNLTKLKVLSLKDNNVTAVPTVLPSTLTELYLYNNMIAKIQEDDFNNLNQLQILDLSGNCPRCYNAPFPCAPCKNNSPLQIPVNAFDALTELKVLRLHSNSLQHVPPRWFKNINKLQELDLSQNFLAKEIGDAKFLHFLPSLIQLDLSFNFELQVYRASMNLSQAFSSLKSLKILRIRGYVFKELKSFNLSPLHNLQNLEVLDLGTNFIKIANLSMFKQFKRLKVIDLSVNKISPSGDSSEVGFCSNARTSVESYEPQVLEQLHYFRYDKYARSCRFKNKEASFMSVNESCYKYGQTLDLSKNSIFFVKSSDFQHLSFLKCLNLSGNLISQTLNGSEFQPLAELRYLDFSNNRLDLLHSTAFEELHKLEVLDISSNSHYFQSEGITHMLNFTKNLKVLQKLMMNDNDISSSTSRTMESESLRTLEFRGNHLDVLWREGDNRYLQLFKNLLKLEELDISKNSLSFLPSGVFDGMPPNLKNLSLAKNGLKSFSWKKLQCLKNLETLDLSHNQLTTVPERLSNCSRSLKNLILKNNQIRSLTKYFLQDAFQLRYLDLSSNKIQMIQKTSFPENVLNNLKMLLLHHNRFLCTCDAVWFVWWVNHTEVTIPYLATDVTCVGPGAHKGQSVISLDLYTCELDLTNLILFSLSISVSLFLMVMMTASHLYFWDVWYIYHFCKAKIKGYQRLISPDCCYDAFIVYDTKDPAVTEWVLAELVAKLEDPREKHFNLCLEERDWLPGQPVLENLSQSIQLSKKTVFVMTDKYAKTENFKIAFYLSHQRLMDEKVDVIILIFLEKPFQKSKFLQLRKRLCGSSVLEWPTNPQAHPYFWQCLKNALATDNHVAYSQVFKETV
# experiment description: TLR7 human peripheral blood mononuclear cell (PBMC) cell-based assay
# measurement context: human PBMCs; 1 h with test antagonist, then TLR7 agonist GS-986 400 nM for 6 h; cytokines (IL-6 and IFNα) in supernatant; read-out: TLR-7 EC50
pEC50: −log10 of the molar value.
metric name: pEC50

[[record]]
compound = "Cc1c(C2CCN(C(=O)[C@H]3C[C@H](O)CN3)CC2)sc2[nH]c(-c3cn4ncnc4c4c3CCC4)c(C(C)C)c12"
metric_name = "pEC50"
recorded_result = 8.82

[[record]]
compound = "Cc1c(C2CCN(C(=O)[C@H]3C[C@@H](F)CN3)CC2)sc2[nH]c(-c3cn4ncnc4c4c3CCC4)c(C(C)C)c12"
metric_name = "pEC50"
recorded_result = 8.84

[[record]]
compound = "Cc1c(C2CCC(N3CC(C)(O)C3)CC2)sc2[nH]c(-c3cn4ncnc4c4c3CCC4)c(C(C)C)c12 (stereo not drawn)"
metric_name = "pEC50"
recorded_result = 9.82

[[record]]
compound = "Cc1nc2c3c(c(-c4[nH]c5sc(C6CCN(C(=O)[C@H]7COCCN7)CC6)c(C)c5c4C(C)C)cn2n1)CCC3"
metric_name = "pEC50"
recorded_result = 9.21


1: Cc1c(C2CC3(CCN(CC(N)=O)C3)C2)sc2[nH]c(-c3cn4ncnc4c4c3CCC4)c(C(C)C)c12 (stereo not drawn)
2: Cc1nc2c3c(c(-c4[nH]c5sc(C6CCN(C(=O)[C@H]7COCCN7)CC6)c(C)c5c4C(C)C)cn2n1)COC3
3: Cc1c(C23CCN(CC(N)=O)CC2C3)sc2[nH]c(-c3cn4ncnc4c4c3CCC4)c(C(C)C)c12 (stereo not drawn)
4: Cc1c(C2CCN(C(=O)[C@H]3COCCN3)CC2)sc2[nH]c(-c3cn4ncnc4c4c3CCC4)c(C(C)C)c12
5: CO[C@@H]1CN[C@@H](C(=O)N2CCC(c3sc4[nH]c(-c5cn6ncnc6c6c5CCC6)c(C(C)C)c4c3C)CC2)C1
Query block: Please put the entries in order of rising pEC50. Note for the reader: the ranking is given by listing the labels in the order requested.
Result block: 2, 1, 4, 3, 5

----------
# measured target: TLR8 (Homo sapiens)
# Construct: Human peripheral blood mononuclear cells (PBMCs) consist of lymphocytes, monocytes and dendritic cells that express TLR7, TLR8 and TLR9; endogenous in cells; host or cells: cryopreserved human PBMCs from healthy donors
# Sequence (Q9NR97 27-1041): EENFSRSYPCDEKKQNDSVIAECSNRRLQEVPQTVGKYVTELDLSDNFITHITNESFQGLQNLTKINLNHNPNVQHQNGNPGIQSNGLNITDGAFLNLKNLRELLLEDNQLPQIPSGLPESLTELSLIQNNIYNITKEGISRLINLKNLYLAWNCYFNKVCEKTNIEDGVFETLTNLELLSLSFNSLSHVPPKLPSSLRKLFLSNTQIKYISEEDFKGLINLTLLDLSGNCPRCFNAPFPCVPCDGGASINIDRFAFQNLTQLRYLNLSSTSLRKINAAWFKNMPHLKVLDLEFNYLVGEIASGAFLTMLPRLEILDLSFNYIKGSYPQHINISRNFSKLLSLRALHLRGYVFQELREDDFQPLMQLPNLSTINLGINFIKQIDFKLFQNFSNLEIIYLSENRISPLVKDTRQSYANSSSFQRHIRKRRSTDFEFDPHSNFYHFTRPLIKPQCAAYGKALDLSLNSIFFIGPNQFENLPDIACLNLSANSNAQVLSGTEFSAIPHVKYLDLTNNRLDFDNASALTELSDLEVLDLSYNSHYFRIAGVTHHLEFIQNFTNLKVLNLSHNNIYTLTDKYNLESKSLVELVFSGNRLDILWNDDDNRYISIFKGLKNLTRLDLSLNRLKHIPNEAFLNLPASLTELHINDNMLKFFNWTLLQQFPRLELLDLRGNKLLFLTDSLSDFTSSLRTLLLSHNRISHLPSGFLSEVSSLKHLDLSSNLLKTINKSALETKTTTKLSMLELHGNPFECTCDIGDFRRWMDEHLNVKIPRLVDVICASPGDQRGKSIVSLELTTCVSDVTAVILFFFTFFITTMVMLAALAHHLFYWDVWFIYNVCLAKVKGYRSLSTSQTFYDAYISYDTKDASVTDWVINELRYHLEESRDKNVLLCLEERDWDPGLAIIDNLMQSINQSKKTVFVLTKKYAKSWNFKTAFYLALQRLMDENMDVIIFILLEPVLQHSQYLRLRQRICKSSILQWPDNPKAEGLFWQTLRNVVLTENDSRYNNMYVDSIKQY
# experiment description: TLR8 human peripheral blood mononuclear cell (PBMC) cell-based assay
# measurement context: human PBMCs; 1 h with antagonist, then TLR8 agonist Compound A 800 nM for 6 h; cytokines (TNFa and IL12p40) in supernatant; read-out: TLR-8 EC50
metric name: EC50 (nM)

Illustrative cases are given below, each with its answer.
[[record]]
molecule = "Cc1c(C2CC3CCC(C2)N3)sc2[nH]c(-c3cn4ncnc4c4c3CCC4)c(C(C)C)c12 (centres unmarked)"
metric_name = "EC50"
recorded_result = 3.94

[[record]]
molecule = "Cc1nc2c3c(c(-c4[nH]c5sc(C6CCN(CC(N)=O)CC6)c(C)c5c4C(C)C)cn2n1)CCC3"
metric_name = "EC50"
recorded_result = 34.6

[[record]]
molecule = "Cc1c(-c2cn(C3CCNCC3)nn2)sc2[nH]c(-c3cn4ncnc4c4c3CCC4)c(C(C)C)c12"
metric_name = "EC50"
recorded_result = 0.21

[[record]]
molecule = "CC(C)c1c(-c2cn3ncnc3c3c2CCC3)[nH]c2sc(C3CCN(CC(N)=O)CC3)cc12"
metric_name = "EC50"
recorded_result = 1.57

[[record]]
molecule = "Cc1c(C2CCN(C(=O)[C@H]3C[C@@]4(CNCCO4)C3)CC2)sc2[nH]c(-c3cn4ncnc4c4c3CCC4)c(C(C)C)c12"
metric_name = "EC50"
recorded_result = 1.38

[[record]]
molecule = "CC(C)c1c(-c2cn3ncnc3c3c2CCC3)[nH]c2sc(C3CCN(C(=O)[C@H]4COCCN4)CC3)cc12"
metric_name = "EC50"
recorded_result = 7.57


I: CO[C@@H]1CN[C@@H](C(=O)N2CCC(c3sc4[nH]c(-c5cn6ncnc6c6c5CCC6)c(C(C)C)c4c3C)CC2)C1
II: Cc1c([C@@H]2C[C@@H]3C[C@H]2CN3CC(N)=O)sc2[nH]c(-c3cn4ncnc4c4c3CCO4)c(C(C)C)c12
III: Cc1c(-c2ccc(N3CCNCC3)cc2)sc2[nH]c(-c3cn4ncnc4c4c3CCC4)c(C(C)C)c12
Query block: Order the records, beginning with the lowest EC50 and ending with the highest. Field: ranking. Enter the labels in the order requested.
Result block: II, III, I

1: Cc1c(C23CCNCC2C3)sc2[nH]c(-c3cn4ncnc4c4c3CCC4)c(C(C)C)c12 (centres unmarked)
2: Cc1c(C2CCN(CC3(C)COC3)CC2)sc2[nH]c(-c3cn4ncnc4c4c3CCC4)c(C(C)C)c12
Query block: Please indicate which entry, 1 or 2 , has the lower recorded EC50 value. Return value: the label identifying the chosen record.
Result block: 1
(1: 1.76 nM, 2: 4.74 nM)

1: Cc1c(C2CCC(N3CC4(CCN(C)C4=O)C3)CC2)sc2[nH]c(-c3cn4ncnc4c4c3CCC4)c(C(C)C)c12 (centres unmarked)
2: Cc1c(-c2ccc(N3CCNCC3)nc2)sc2[nH]c(-c3cn4ncnc4c4c3CCC4)c(C(C)C)c12
3: Cc1c(C2CCN(C(=O)[C@H]3COCCN3)CC2)sc2[nH]c(-c3cn4ncnc4c4c3CCO4)c(C(C)C)c12
Query block: Thanks in advance: please rank these 3 entries by EC50, highest to lowest. Use the labels to give the requested order.
Result block: 3, 1, 2

I: Cc1c(C2CCN(C(=O)[C@H]3C[C@H](O)CN3)CC2)sc2[nH]c(-c3cn4ncnc4c4c3CCC4)c(C(C)C)c12
II: Cc1c(C2CCNCC2)sc2[nH]c(-c3cn4ncnc4c4c3CCC4)c(C(C)C)c12
III: Cc1c(C2CCN(C(=O)[C@H]3C[C@@H](O)CN3)CC2)sc2[nH]c(-c3cn4ncnc4c4c3CCC4)c(C(C)C)c12
IV: Cc1c(C2CCN(CC(N)=O)CC2)sc2[nH]c(-c3cn4ncnc4c4c3CCC4)c(C(C)C)c12
Query block: Rank items: key EC50, increasing. Give the labels in the order specified.
Result block: II, IV, III, I

Data origin, for the record: patent US12070455B2
